The reported numbers originate from ChEMBL document CHEMBL3826939.

Experiment: Solubility of the compound by LYSA
Type: physicochemical
Measured Parameter: solubility

query_smiles=CC(C)(C(=O)N1CCN(c2cc(NCCN)c3ccccc3n2)CC1)c1ccccc1 recorded_measurement="> 400 µg/mL"
query_smiles=CNCCNc1cc(N2CCN(C(=O)C(C)(C)c3ccccc3)CC2)nc2ccccc12 recorded_measurement="> 400 µg/mL"

* * *

Experiment: Cytotoxicity against human Hep2 cells measured after 6 days by CCK8 assay
Assay type: cell-based, HEp-2
Items are presented alongside their recorded CC50 at 144 h.
Measured Parameter: CC50 at 144 h

query_smiles=N#Cc1cccc(CC(=O)N2CCN(c3cc(NCCN)c4ccccc4n3)CC2)c1 recorded_measurement="> 100 µM"
query_smiles=NCCNc1cc(N2CCN(C(=O)Cc3cccc(F)c3)CC2)nc2ccccc12 recorded_measurement="> 100 µM"
query_smiles=CCC(CC)(C(=O)N1CCN(c2cc(NCCN)c3ccccc3n2)CC1)c1ccccc1 recorded_measurement="> 100 µM"
query_smiles=CC(C)(C(=O)N1CCN(c2cc(NCCN)c3ccc(Cl)cc3n2)CC1)c1ccccc1 recorded_measurement="20.9 µM"
query_smiles=NCCNc1cc(N2CCN(c3ccccc3)CC2)nc2ccccc12 recorded_measurement="20.8 µM"
query_smiles=CNCCNc1cc(N2CCN(C(=O)C(C)(C)c3ccccc3)CC2)nc2ccccc12 recorded_measurement="> 100 µM"
query_smiles=NCCNc1cc(N2CCN(C(=O)Cc3ccc(F)cc3)CC2)nc2ccccc12 recorded_measurement="> 100 µM"
query_smiles=NCCNc1cc(N2CCN(C(=O)Cc3cccc(C(F)(F)F)c3)CC2)nc2ccccc12 recorded_measurement="> 100 µM"
query_smiles=NCCNc1cc(N2CCN(C(=O)Cc3ccc(Cl)cc3)CC2)nc2ccccc12 recorded_measurement="> 100 µM"
query_smiles=CC(C)CC(=O)N1CCN(c2cc(NCCN)c3ccccc3n2)CC1 recorded_measurement="> 100 µM"
query_smiles=NCCNc1cc(N2CCN(C(=O)Cc3ccccc3F)CC2)nc2ccccc12 recorded_measurement="> 100 µM"
query_smiles=CC(C)C(=O)N1CCN(c2cc(NCCN)c3ccccc3n2)CC1 recorded_measurement="> 100 µM"
query_smiles=Cc1ccc(CC(=O)N2CCN(c3cc(NCCN)c4ccccc4n3)CC2)cc1 recorded_measurement="> 100 µM"
query_smiles=NCCNc1cc(N2CCN(C(=O)C3CCCCC3)CC2)nc2ccccc12 recorded_measurement="> 100 µM"
query_smiles=NCCNc1cc(N2CCN(S(=O)(=O)c3ccccc3)CC2)nc2ccccc12 recorded_measurement="20.5 µM"
query_smiles=Cc1cccc(CC(=O)N2CCN(c3cc(NCCN)c4ccccc4n3)CC2)c1 recorded_measurement="> 100 µM"
query_smiles=NCCNc1cc(N2CCN(c3ccccc3Cl)CC2)nc2ccccc12 recorded_measurement="20.8 µM"
query_smiles=NCCNc1cc(N2CCN(C(=O)C3(c4ccccc4)CC3)CC2)nc2ccccc12 recorded_measurement="> 100 µM"
query_smiles=CC(=O)N1CCN(c2cc(NCCN)c3ccccc3n2)CC1 recorded_measurement="> 100 µM"
query_smiles=NCCNc1cc(N2CCN(C(=O)C3(c4ccccc4)CCCC3)CC2)nc2ccccc12 recorded_measurement="> 100 µM"
query_smiles=NCCNc1cc(N2CCN(C(=O)Cc3ccccc3)CC2)nc2ccccc12 recorded_measurement="> 100 µM"
query_smiles=NCCNc1cc(N2CCN(C(=O)Cc3ccccc3Cl)CC2)nc2ccccc12 recorded_measurement="> 100 µM"
query_smiles=CS(=O)(=O)N1CCN(c2cc(NCCN)c3ccccc3n2)CC1 recorded_measurement="> 100 µM"
query_smiles=NCCNc1cc(N2CCN(C(=O)Cc3ccc(F)c(F)c3)CC2)nc2ccccc12 recorded_measurement="> 100 µM"
query_smiles=NCCNc1cc(N2CCN(C(=O)c3ccccc3)CC2)nc2ccccc12 recorded_measurement="> 100 µM"
query_smiles=NCCNc1cc(N2CCN(c3cccc(Cl)c3)CC2)nc2ccccc12 recorded_measurement="6.4 µM"
